Provenance of the data: patent US9034303B2

assay: Cytotoxicity experiments conducted in the past with M30, A549; type: cell-based; conditions: human, A549 cells, methods not identical, read-out: LC50 (μM) A549
Measured Attribute: CC50

>  <Molecule>
C#CCN(C)Cc1ccc(O)c2ncccc12 [Compound M30, reference compound]

>  <Reading>
> 1000 µM

$$$$

* * *

experiment: Cytotoxicity experiments conducted in the past with M30, SHSY-5Y; assay type: cell-based, human; settings: human, SH-SY5Y cells; experiments conducted in the past, methods not identical; read-out: LC50 (μM) SHSY-5Y
Measured Attribute: CC50

>  <Compound>
C#CCN(C)Cc1ccc(O)c2ncccc12 [Compound M30, reference compound]

>  <Reading>
> 1000 µM

$$$$
